// provenance: patent US20250099420A1

Target: GPR139 (Homo sapiens, UniProt Q6DWJ6)
Sequence (Q6DWJ6 whole entry): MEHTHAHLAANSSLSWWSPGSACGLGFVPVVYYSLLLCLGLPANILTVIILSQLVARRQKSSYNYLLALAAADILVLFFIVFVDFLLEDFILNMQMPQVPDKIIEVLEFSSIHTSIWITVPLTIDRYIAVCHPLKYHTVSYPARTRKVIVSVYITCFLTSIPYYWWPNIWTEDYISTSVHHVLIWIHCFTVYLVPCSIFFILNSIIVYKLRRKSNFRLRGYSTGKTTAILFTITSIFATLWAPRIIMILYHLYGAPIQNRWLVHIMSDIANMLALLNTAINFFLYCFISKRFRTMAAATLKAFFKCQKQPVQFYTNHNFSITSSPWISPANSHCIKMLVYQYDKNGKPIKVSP
Assay: GPR139 Agonist titration / agonist counterscreen assay (calcium detection, HEK-GPR139 cells)
Format: cell-based
Set-up: expressed in transfected cells; host or cells: HEK Aequorin cells, Maxcyte transient transfection
Details: GPR139 Agonist Activity; activity relative to known control
measuredAttribute: Averaged Max % Response (±St. Dev.) (%)

>>> number("COc1cc(OC)cc(C(=O)NNC(=O)C(C)Oc2ccc(Cl)cc2Cl)c1 (centres unmarked) [SR-01000358013]")
146.26
>>> number("O=C(Cn1nnc(-c2ccccc2)n1)NNC(=O)Cn1c(C(F)(F)F)nc2ccccc21 [SR-01000070891]")
105.87
>>> number("CN(Cc1ccc[nH]1)C(=O)CN1C(=O)NC2(CCc3ccccc3C2)C1=O (centres unmarked) [SR-01000068179]")
87.03
>>> number("C=C(C)CN(CC)C(=O)CN1C(=O)NC(C)(c2ccc3ccccc3c2)C1=O (centres unmarked) [SR-01000048841]")
125.61
>>> number("COc1ccc(-c2nnn(CC(=O)NCCc3c[nH]c4ccccc34)n2)cc1OC [SR-01000339494]")
107.79
>>> number("O=C(CCC(=O)c1ccco1)NNC(=O)CN1CCCc2ccccc21 [SR-01000068721]")
109.68
>>> number("COc1ccc(CCNC(=O)COc2ccc(Cl)cc2Cl)cc1 [SR-01000412367]")
112.23
>>> number("O=C(CCC1CCCC1)NNC(=O)CSc1ccc(Cl)cc1 [SR-01000069439]")
123.43
>>> number("O=C(CN1CCCN(Cc2ccc(F)cc2Cl)C1=O)NC1CCCCCC1 [SR-01000146442]")
108.38
>>> number("Cc1ccc(C2(C)NC(=O)N(CC(=O)NCC(C)C)C2=O)cc1 (centres unmarked) [SR-01000048367]")
122.38

[1] CCn1c2ccccc2c2cc(C3C(C#N)=C(N)Oc4n[nH]c(C)c43)ccc21 (centres unmarked) [SR-01000465824]
[2] Cc1ccc(CNC(=O)COC(=O)c2ccc(Br)o2)cc1 [SR-01000042100]
[3] Cc1ccc(SCC(=O)Nc2nnc(-c3ccc(Cl)cc3)o2)cc1 [SR-01000913573]
Kindly order the items shown according to Averaged Max % Response (±St. Dev.), from the highest value down. Output spec: a listing of the labels in the requested order.
3, 2, 1

----------
Molecular target: GPR139 (Homo sapiens)
Experiment: GPR139 Agonist titration / agonist counterscreen assay (calcium detection, HEK-GPR139 cells)
Format: cell-based
Parameters: expressed in transfected cells; host or cells: HEK Aequorin cells, Maxcyte transient transfection
Details: GPR139 Agonist Activity; based on logD
Description: GPR activity was assessed using a calcium detection assay. […] Negative control samples were treated with DMSO. […] Intracellular calcium was measured using Calcium 5.
measuredAttribute: Lipophilic Efficiency (logD)

>>> number("O=C1N2CN(Cc3ccccc3)CN3C(=O)N4CN(Cc5ccccc5)CN1C4C23 (stereo not shown)")
4.52
>>> number("O=C(NCc1csc(-c2cccs2)n1)C1CC(Cc2ccc3c(c2)OCO3)=NO1 (stereo not shown)")
3.43

[A] Cc1cccnc1CNC(=O)CCC1(Cc2cccc3ccccc23)CCC(=O)N1 (stereo not shown)
[B] CN(Cc1cccs1)C(=O)CN1C(=O)NC(C)(c2ccc3c(c2)OCO3)C1=O (stereo not shown)
Lower Lipophilic Efficiency (logD): A or B ? Select an item and report its label.
A
